Collected inhibition values appear next to each entry.
# assay notes: compounds lowering TTR transcription reporter in HuH7 – cell-based, luminescence, HuH7 hepatoma, counter-screen for TTR transcription activator project (AID 1117279);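 further: 0% = cells with DMSO only and 100% = cells with inhibitor control FD; inhibitors lower well luminescence so higher value means more inhibition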
# measurement conditions: HuH7 TTR promoter-Gaussia luciferase reporter, at 16.7 µM, stronger effect = higher value
Hit rate of the full screen: of about 1,100 compounds, about 40 (4%) were called active. Not all results are given here.
parameter: inhibition (%)

[[record]]
molecule = "O=C(O)C1OC(C(=O)O)C2C1C(F)(F)C2(F)F (stereo not drawn)"
output_unit = "%"
observed_value = -13.2

[[record]]
molecule = "O=C1c2cccc(OCC(=O)N3N=C(c4cccs4)CC3c3ccc(F)cc3)c2CCN1Cc1ccccc1 (stereo not drawn)"
output_unit = "%"
observed_value = 9.54

[[record]]
molecule = "COc1cc(N2C(=O)CC3(CCCC3)CC2=O)cc(OC)c1OC"
output_unit = "%"
observed_value = -8.06

[[record]]
molecule = "Nc1nc(SCC(=O)Nc2ccc(Cl)c([N+](=O)[O-])c2)n[nH]1"
output_unit = "%"
observed_value = -10

[[record]]
molecule = "C(=N\\n1cnnc1)/c1cccnc1"
output_unit = "%"
observed_value = -6.37

[[record]]
molecule = "CCOc1ccc(N=C2NC(=O)S/C2=C\\c2ccc(O)cc2)cc1"
output_unit = "%"
observed_value = 24.4

[[record]]
molecule = "CCOC(=O)c1cc(-c2ccc(Cl)s2)nc2c1c(C)nn2C"
output_unit = "%"
observed_value = -14.6

[[record]]
molecule = "CCCCN(C)CCNC(=O)C1CCCN(S(=O)(=O)c2cccc3nsnc23)C1 (stereo not drawn)"
output_unit = "%"
observed_value = -18

[[record]]
molecule = "O=C(NCCCNC(=O)c1ccccc1Cl)c1cnccn1"
output_unit = "%"
observed_value = -8.25

[[record]]
molecule = "COC(=O)c1cnn2c(C(F)(F)F)cc(-c3ccco3)nc12"
output_unit = "%"
observed_value = 2.2

[[record]]
molecule = "O=C(NNC(=O)c1cc(S(=O)(=O)N2CCCCC2)ccc1Cl)c1ccccc1O"
output_unit = "%"
observed_value = -22.3

[[record]]
molecule = "CCCCCc1ccc(-c2cn(Cc3ccc4ccccc4c3)nn2)cc1"
output_unit = "%"
observed_value = -10.2

[[record]]
molecule = "C=C1C(C(C)C)N(C)C2=NC(c3ccccc3)CC(=O)N12 (stereo not drawn)"
output_unit = "%"
observed_value = -4.18


Numbers sourced from PubChem BioAssay AID1117279.
